# assay_notes: NCI Yeast Anticancer Drug Screen. Data for the rad50 strain (AID 155);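 note: 0% = growth of vehicle-only cultures of the same strain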
# test_parameters: S. cerevisiae rad50 strain growth inhibition; at 50.0 µM (retest, dose inferred, filed as 5.0); stronger effect = higher value
# Protocol: Growth inhibition of yeast strains with defined genetic alterations is measured as a screen for potential anti-cancer activity. Selected strains with alterations in DNA damage repair or cell cycle control were exposed to compounds and growth inhibition was measured relative to vehicle treated controls. The strain used in this assay is rad50
This is part of a sample that, as a whole, favours compounds with a hit. Of some 79,000 tested, about 15% had one in any assay.
Please use MET whenever growth inhibition is not below 90%, and NOT MET whenever it is.

molecule=CC(=O)c1c(-c2ccc(Cl)cc2)c(-c2ccc(Cl)cc2)nn(CCO)c1=O label="NOT MET"
molecule=COc1ccc(NCCN(C)C)c2c(=O)c3ccccc3sc12 label="NOT MET"
molecule=c1ccc2c(c1)ccc1c[n+]3c4ccccc4ccc3n12 label=MET
molecule=N#CCCN(C(=S)Nc1cccc(C(F)(F)F)c1)C1CCCCC1 label="NOT MET"
molecule="CC(c1ccc2cccc(F)c2c1)c1ccccc1C(=O)O (stereo unspecified)" label=MET

----------
# assay_notes: NCI Yeast Anticancer Drug Screen. Data for the cln2 rad14 strain (AID 165);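 note: 0% = growth equal to vehicle treated cultures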
# test_parameters: S. cerevisiae cln2 rad14 strain, at 50.0 µM, stronger effect = higher value
About 79,000 compounds went through this panel and 15% of them were active in at least one assay; those are over-represented in the sample as a whole.
Recorded measurements of growth inhibition, one per entry
parameter_measured: growth inhibition (%)

compound="CCC(Cl)COP(=O)(OC(c1ccc(Cl)c(Cl)c1)P(=O)(OCC(Cl)CC)OCC(Cl)CC)C(CC)CCl (centres undefined)" test_result=83.5
compound="CCC(c1ccc(OC)cc1)C(O)(CC)c1ccc(OC)cc1 (centres undefined)" test_result=98
compound=CCCCCCCCCCCCCCOS(=O)(=O)O test_result=99.6
compound="C=C1C(=O)C23CC[C@H]4C(C)(CCC[C@]4(C)C(=O)O)[C@@H]2CCC1C3 (some centres undefined)" test_result=88.3
compound=C/C(CCn1[nH]c(=O)ccc1=O)=N\NS(=O)(=O)c1ccc(C)cc1 test_result=-6.7
compound=O=C1CN(/N=C\c2ccc([N+](=O)[O-])o2)C(=O)N1 test_result=-8.35
compound="COC(=O)/C=C(\\NC1CC(OC2C[C@](O)(C(C)=O)Cc3c(O)c4c(c(O)c32)C(=O)c2c(OC)cccc2C4=O)OC(C)C1O)C(=O)OC (some centres undefined)" test_result=94.9
compound="CC1=CC2OC3CC4OC(=O)/C=C/C=C/C(C(C)O)OCC(=O)C(C)CC(=O)OCC2(CC1)C4(C)C31CO1 (centres undefined)" test_result=91.3
compound=O=[N+]([O-])c1ccc(/C=c2\sc3scc(-c4ccc([N+](=O)[O-])cc4)[n+]3\c2=C/c2ccc([N+](=O)[O-])cc2)cc1 test_result=69.3
compound=CC(=O)OCc1cc2ccccc2nc1C(Br)(Br)Br test_result=96.7
compound="CCCCC(CCc1ccccc1[N+](=O)[O-])(C(C)=O)C(=O)OCC (centres undefined)" test_result=-12.2
compound=CCOc1cnn(-c2ccccc2)c(=O)c1SCc1ccc(Cl)c(Cl)c1 test_result=53.1
compound="COc1ccc(C2SCC(=O)N2c2ccc(-c3ccc(-n4c(-c5ccccc5)nc5ccccc5c4=O)cc3)cc2)cc1 (centres undefined)" test_result=13.5
compound=CN(C)CCNC(=O)c1cccc2ccc(-c3ccc(-c4ccccc4)cc3)nc12 test_result=98.5
compound=Cc1ccc(S(=O)(=O)N/N=C(\C=C\c2ccccc2)c2ccccc2)cc1 test_result=44.4
compound="CCN(CC)CCCC(C)Nc1cc(C)nc2c1ccc1c2ccc2c(NC(C)CCCN(CC)CC)cc(C)nc21 (centres undefined)" test_result=71.4
compound=CCN(CC)CCNc1c2ccccc2nc2cccc([N+](=O)[O-])c12 test_result=86.5
compound=Oc1cc2ccccc2cc1O test_result=92.4
compound=CC(=O)Nc1c(Cl)ccc2c1Cc1cc([N+](=O)[O-])ccc1-2 test_result=47.9
compound="NC(=O)NCCCCC1NC(=S)N(c2ccccc2)C1=O (centres undefined)" test_result=-4.9
compound=NS(=O)(=O)c1ccc(-n2cccc2)cc1 test_result=56.6
compound="CC1(c2ccc(Cl)cc2)OC(=O)C(=Cc2ccc([N+](=O)[O-])s2)C(=O)O1 (centres undefined)" test_result=52.4
compound=Cc1ccccc1NC(=S)N/N=C(/c1ccccc1)c1ccccn1 test_result=68.4
compound=O=C1c2ccccc2-c2cc(S)c([N+](=O)[O-])cc21 test_result=21
compound=Cc1c(CNc2ccc(Cl)c(Cl)c2Cl)cnc2nc(N)nc(N)c12 test_result=43.4
compound="CC1CCC(C(C)(C)c2ccc(O)cc2)CC1 (centres undefined)" test_result=97.6
compound=CCc1cc2c(cc1O)CC[C@@H]1[C@@H]2CC[C@]2(C)[C@@H](O)CC[C@@H]12 test_result=91
compound=CN(C)c1ccc(N=Nc2ccc3c4c(cccc24)-c2ccccc2-3)cc1 test_result=95.8
compound="BrC1(c2ccccc2)C[n+]2c(-c3ccccc3)cc(-c3ccccc3)cc2-c2ccccc21 (centres undefined)" test_result=91.2
compound="Oc1c(C(Nc2ccccn2)c2ccccc2)ccc2cccnc12 (centres undefined)" test_result=93
compound=CCN(C(C)=O)c1cnc(/C=N/NC(N)=S)c2ccccc12 test_result=61.3
compound=CSC(=S)N/N=C(/C)CC(C)C test_result=66.8
compound="COc1ccc2c(c1)CCC(N1CCCC(O)C1)C2 (centres undefined)" test_result=23.2
compound=Nc1ncc2ccccc2c1-c1ccc(NC(=O)CCCl)cc1 test_result=-4.85
compound=Cn1c(=O)cc[nH]c1=O test_result=-0.75
compound="COc1ccc2cc(C3CCCC3(C)CC(=O)O)ccc2c1 (centres undefined)" test_result=11.1
compound=CCCCc1ccc2nccc(N/N=C/c3ccc(OC)c4ccccc34)c2c1 test_result=62.4
compound=N#C/C(=C/c1cc(I)cc(I)c1O)C(N)=O test_result=61.2
compound=CCCCN(CCCC)CCC(=O)c1ccc2c(ccc3ccccc32)c1 test_result=87

----------
# assay_notes: NCI Yeast Anticancer Drug Screen. Data for the mec2-1 strain (AID 157)
# test_parameters: S. cerevisiae mec2-1 strain, at 50.0 µM, stronger effect = higher value
Compounds without any hit were thinned out: in the full panel of roughly 79,000, 15% have a hit.
Note to self: class = bucket of growth inhibition, per bottom bin = under 50%, middle bin = from 50% up to 90%, top bin = 90% and over

compound=Nc1ccc(-c2cccc(-c3ccccc3)c2)cc1 label="top bin"
compound=S=c1[nH]c(-c2ccccc2)cs1 label="middle bin"
compound="O=C(NCCCCC(NC(=O)OCc1ccccc1)C(=O)Nc1ccc(Nc2ccc(NC(=O)C(CCCCNC(=O)OCc3ccccc3)NC(=O)OCc3ccccc3)cc2)cc1)OCc1ccccc1 (stereo not drawn)" label="top bin"
compound=Oc1ccc(Cc2ccccc2)cc1Cl label="bottom bin"
compound=CCOc1nc(N)nc(C)c1N=Nc1ccc(Cl)cc1Cl label="bottom bin"
compound="CSc1ncnc2nn(C3OC(COC(=O)c4ccccc4)C(OC(=O)c4ccccc4)C3OC(=O)c3ccccc3)nc12 (stereo not drawn)" label="bottom bin"
compound="O=C1C(N=Nc2ccccc2)=C(O)C2C3C=CC(C3)C12 (stereo not drawn)" label="top bin"
compound=O=C(O)/C(=C\c1cc(I)c(O)c(I)c1)c1ccc(I)cc1 label="middle bin"
compound="C=C1C(=O)C23CC[C@H]4C(C)(CCC[C@]4(C)C(=O)O)[C@@H]2CCC1C3 (stereo partly drawn)" label="top bin"
compound="NC1NCCC(=O)N1CCc1c[nH]c2ccccc12 (stereo not drawn)" label="middle bin"
compound="CC1Cc2ccc3c(c2C(c2ccc4c(c2)OCO4)C1C)OCO3 (stereo not drawn)" label="bottom bin"
compound=Cc1occc1C(=S)Nc1ccc(Cl)c(/C=N/OC(C)C)c1 label="middle bin"
compound=c1ccc(-c2cc(CN3CCOCC3)c(-c3ccccc3)o2)cc1 label="middle bin"
compound=COC(=O)c1ccccc1NC(=S)NN(C)C label="bottom bin"
compound=CC1=C(C(=O)Nc2ccc(C)cc2C)C(c2cccc([N+](=O)[O-])c2)C(C(=O)Nc2ccc(C)cc2C)=C(C)N1 label="bottom bin"
compound=CN(NC(=O)CC(=O)NN(C)C(=S)c1ccccc1)C(=S)c1ccccc1 label="middle bin"
compound="CC1=NN(c2ccccc2)C(=O)C12[C@H](c1ccccc1)C2(C#N)C#N (stereo partly drawn)" label="middle bin"
compound=CCOC(=O)OC(=S)N(C1CCCCC1)C1CCCCC1 label="bottom bin"
compound=O=S(=O)(Nc1cccc(C2=NCCN2)c1)c1ccc2c(S(=O)(=O)Nc3cccc(C4=NCCN4)c3)cccc2c1 label="bottom bin"
compound="C/C(=N/NC(N)=S)C(CN1CCOCC1)C(C1=C(O)c2ccccc2OC1)c1ccccc1 (stereo not drawn)" label="middle bin"
compound=O=C1C(Br)=C(C2CCCCC2)C(=O)c2ccccc21 label="top bin"
compound="CC(=O)Nc1ccc(C(=O)C(C)Br)cc1 (stereo not drawn)" label="middle bin"
compound=CCCCCCCCCCCCNCc1ccc2c(c1)OCO2 label="top bin"
compound=COc1ccc(NC(=S)N/N=C/c2cccc(C)n2)cc1 label="middle bin"
compound=CCCCN1C(=O)C(=O)N(c2ccccc2)C1=O label="bottom bin"
compound="BrC(Br)=C1C(=C(Br)Br)C(Br)C1Br (stereo not drawn)" label="middle bin"
compound="CC(C)C1=C(O)C2=C(C(=O)C1=O)C1(C)CCCC(C)(C)C1C(O)C2OC=O (stereo not drawn)" label="top bin"
compound="Cc1cccc2c1Oc1ccccc1C2N1C(=O)/C(=C/c2ccccc2Cl)SC1=S (stereo not drawn)" label="bottom bin"
compound="CCCCN(CCCC)CC(O)c1cccc2c(Cl)cccc12 (stereo not drawn)" label="middle bin"
